Reference for the values: ChEMBL document CHEMBL1122373

Target protein (sequence): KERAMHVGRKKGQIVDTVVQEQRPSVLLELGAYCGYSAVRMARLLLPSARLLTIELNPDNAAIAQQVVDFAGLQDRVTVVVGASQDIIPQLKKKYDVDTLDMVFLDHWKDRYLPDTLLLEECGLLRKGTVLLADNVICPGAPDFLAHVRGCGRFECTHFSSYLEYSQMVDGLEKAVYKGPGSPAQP
pIC50: −log10 of the molar value.
Property measured: pIC50

>>> result("C[S+](CCCCc1c[nH]c2ccccc12)C[C@H]1O[C@@H](n2cnc3c(N)ncnc32)[C@H](O)[C@@H]1O (stereo partly specified)")
2.00
